# APPLIED CONDITIONS: 328.15 K; 101.33 kPa; Liquid; Alternating current cell with electrodes
PROPERTY LABEL: electrical conductivity (S/m)

CCCCC[n+]1ccn(C)c1.O=P([O-])(O)O [1-methyl-3-pentylimidazolium dihydrogen phosphate] : 0.588

(A) CCCCn1cc[n+](C)c1C.O=S(=O)([O-])O [1-butyl-2,3-dimethylimidazolium hydrogen sulfate]
(B) CCCCn1cc[n+](C)c1.O=C([O-])O [1-butyl-3-methylimidazolium hydrogen carbonate]
Exam item: Which record shows the lower electrical conductivity: the first, A , or the second, B ? Choose, then provide that item's label.
Marked response: A
(A: 0.441 S/m, B: 0.755 S/m)

###

# APPLIED CONDITIONS: 338.15 K; 101.33 kPa; Liquid; Alternating current cell with electrodes
PROPERTY LABEL: electrical conductivity (S/m)

CCCCCn1cc[n+](C)c1C.O=S(=O)([O-])O [2,3-dimethyl-1-pentylimidazolium hydrogen sulfate] : 0.573
CCCn1cc[n+](C)c1C.O=S(=O)([O-])O [2,3-dimethyl-1-propylimidazolium hydrogen sulfate] : 0.711
CCCCC[n+]1ccn(C)c1.O=P([O-])(O)O [1-methyl-3-pentylimidazolium dihydrogen phosphate] : 0.744

###

# APPLIED CONDITIONS: 293.15 K, Maximal bubble pressure
PROPERTY LABEL: surface tension liquid-gas (mN/m)

CCn1cc[n+](C)c1C.O=S(=O)([O-])O [1-ethyl-2,3-dimethylimidazolium hydrogen sulfate] : 50.1
CCCn1cc[n+](C)c1C.O=S(=O)([O-])O [2,3-dimethyl-1-propylimidazolium hydrogen sulfate] : 47.4
CCCCCn1cc[n+](C)c1C.O=S(=O)([O-])O [2,3-dimethyl-1-pentylimidazolium hydrogen sulfate] : 42.2
CCCCC[n+]1ccn(C)c1.O=P([O-])(O)O [1-methyl-3-pentylimidazolium dihydrogen phosphate] : 41.5
CCCCn1cc[n+](C)c1C.O=S(=O)([O-])O [1-butyl-2,3-dimethylimidazolium hydrogen sulfate] : 45
CCCCn1cc[n+](C)c1.O=P([O-])(O)O [1-butyl-3-methylimidazolium dihydrogen phosphate] : 43.9

###

# APPLIED CONDITIONS: 308.15 K; 101.33 kPa; Liquid; Vibrating tube method
PROPERTY LABEL: mass density (kg/m3)

CCn1cc[n+](C)c1C.O=S(=O)([O-])O [1-ethyl-2,3-dimethylimidazolium hydrogen sulfate] : 1247.08
CCCCn1cc[n+](C)c1.O=C([O-])O [1-butyl-3-methylimidazolium hydrogen carbonate] : 1150
CCC[n+]1ccn(C)c1.O=P([O-])(O)O [1-methyl-3-propylimidazolium dihydrogen phosphate] : 1188.45
CCCCn1cc[n+](C)c1C.O=S(=O)([O-])O [1-butyl-2,3-dimethylimidazolium hydrogen sulfate] : 1203.89

###

# APPLIED CONDITIONS: 318.15 K; 101.33 kPa; Liquid; Vibrating tube method
PROPERTY LABEL: mass density (kg/m3)

CCCCCn1cc[n+](C)c1C.O=S(=O)([O-])O [2,3-dimethyl-1-pentylimidazolium hydrogen sulfate] : 1177.69
CCCCn1cc[n+](C)c1.O=C([O-])O [1-butyl-3-methylimidazolium hydrogen carbonate] : 1142.95
CCn1cc[n+](C)c1C.O=S(=O)([O-])O [1-ethyl-2,3-dimethylimidazolium hydrogen sulfate] : 1239.59
CCCCn1cc[n+](C)c1C.O=S(=O)([O-])O [1-butyl-2,3-dimethylimidazolium hydrogen sulfate] : 1197.49
CCCn1cc[n+](C)c1C.O=S(=O)([O-])O [2,3-dimethyl-1-propylimidazolium hydrogen sulfate] : 1218.82
CCCCCn1cc[n+](C)c1.O=C([O-])O [3-methyl-1-pentylimidazolium hydrogen carbonate] : 1127.75
